assay: amyloid nucleation score (Sup35N fusion, yeast selection) (log enrichment); library NNK3; higher = more nucleation; inactive = no reads after selection;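 also: zero at mode of non-aggregating sequences after 7 days selection at 30°C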

| Substance | amyloid nucleation score |
| --- | --- |
| VALLTYFWYGPIKGVAS | inactive |
| SSGRSSPQWG | inactive |
| VQCRSHWHWRRPGPEARSVW | inactive |
| FKFALPHSNIGFTISSRFGC | 0.478 |
| SSSTANYLSIKFSLSLLKYN | 0.905 |
| GCCFLVILWMKYDCYLGDQV | inactive |
| REPVRLQNKRLPRCQRREWC | inactive |
| FRPLFSESHYPASLTGTGHN | inactive |
| HVSQTWLGRGADSGHWPRQG | 0.325 |
| WRVSFTLS | inactive |
| CYVPVKGLYMPPYGTLRLWG | inactive |
| LFPYMDCNSGTELFYGFIVQ | inactive |
| IRRCPGMKVCWLYLKC | inactive |
| GSVGFIIKGWWSTE | 0.621 |
| VTVEALILNN | inactive |
| CYSNSEPISAYDD | inactive |
| RRCSIFLVVDIAGQLQRFMS | inactive |
| SNLVDGMSWHHFKERIVMLD | inactive |
| FIGMDIIKYLS | 0.631 |
| SFRMSTSCWSSGALMYRLYR | inactive |
| YFINSFCVAVWIICHQGVCA | inactive |
| RTWNVESFREFGCFKINLGP | inactive |
| NQVISFWYSIQYCYEYSRNS | inactive |
| IIHLNLSNVWYTPSGWYRVC | 2.3 |
| IVSTWG | inactive |
| LMLNGHAVHMSSNSEALVIC | inactive |
| VFPYFELCVFLPSYFREAET | inactive |
| ILYLRVYITFVLIGNLEGFR | inactive |
| KGWLSSWVA | inactive |
| HSLVVNSSSERRYG | inactive |
| IGLRLVATLIDLRNADIGYG | inactive |
| TKCTYKLGYTLYTGVKDVVR | inactive |
| RRMNISRGSCVELWFRFQWP | 0.163 |
| ESFVGEGDRSWSGHGNFITV | inactive |
| VIFDLVVGCGAVL | inactive |
| YYYLKCFTYCVLLFYYS | inactive |

---

amyloid nucleation score values for the substances below.
test: amyloid nucleation score (Sup35N fusion, yeast selection) (log enrichment); library NNK1; higher = more nucleation; inactive = no reads after selection

| Substance | amyloid nucleation score |
| --- | --- |
| SACALSYYCGWISRCSYLCP | -0.158 |
| TLQTTWLKNLGDLSSSREAS | -0.184 |
| KLVLSYRYNDG | 2.17 |
| RSYCKRALMLDWFAISRMRL | 0.082 |
| SRGITRQFESHTCAEHRCGS | -0.252 |
| SWGLGSFLY | 0.06 |
| CVLFAYFNALF | 1.3 |
| VAPVEYICELTLWA | -1.22 |
| RLMTASTALGPYTRDLGAYY | -0.089 |
| NSLCSP | -1.31 |
| VYVVGLFQLVSITFLCRITV | 0.153 |
| CYYSRFHFAPISIMFCVNGG | 5.99 |
| TSFVSETGFTWVCVFLVAGT | 0.616 |
| GEQGNPIIESSREFSSVEHN | 4.33 |
| RCLIDCD | 0.157 |
| ICSNGLLIMNVE | 1.13 |
| SGNCSVSW | 0.755 |
| TYYAAMRDGFVYHTKGLMAS | -0.209 |

---

test: amyloid nucleation score (Sup35N fusion, yeast selection) (log enrichment); library NNK2; higher = more nucleation; inactive = no reads after selection
Rule: amyloid nucleation score under 0.02 gives rule not met, otherwise rule met.

| Substance | Label Class |
| --- | --- |
| DSRIGYTSYQRFTMKSNVLC | rule met |
| SVYLVG | rule not met |
| WALYVGGANRFFMCQWVNLG | rule met |
| NTFQSKDRGQWCSTRNAYKG | rule not met |
| GYAADLWWVLLFYERLVSGD | rule met |
| QWQGQHLT | rule not met |
| IIALLYIKMTSTLVTVRKSL | rule met |

---

experiment: amyloid nucleation score (Sup35N fusion, yeast selection) (log enrichment); library NNK1; higher = more nucleation; inactive = no reads after selection

| Substance | amyloid nucleation score |
| --- | --- |
| GMLISTSIMHNES | 0.164 |
| NNCYLDTSLSNLIRDGSSPV | -0.453 |
| FIRIVRIYSLEFALYLGVFQ | 4.51 |
| VWVHKAY | -0.021 |
| TGLLSR | 1.33 |
| PMFSSGLT | 0.099 |
| DLRNMKVNTQDVSFLSPRGG | 0.208 |
| AVVCVIIFYVNDRLYGCNLS | 0.395 |
| KDGFTSRAWPHMFKSLRSQL | 1.07 |
| GTYFSGIVVVFLVGVLAR | -0.207 |
| DLDRDAKLS | -1.43 |
| MVHMCWLTME | 0.454 |
| SHPNRTCKWLHSSVLRTPVL | 0.313 |
| IRLMRWGRCVGISVEGVC | 0.789 |
| SLPFVTS | -0.319 |
| PLVGGRNCGKDFPSLTDTPV | -0.06 |
| SCNVFGASWRLTVNDVWYKW | 0.651 |
| TKPMIMSTFSEFCIPCTMRL | 0.182 |

---

experiment: amyloid nucleation score (Sup35N fusion, yeast selection) (log enrichment); library NNK1; higher = more nucleation; inactive = no reads after selection
Reported Property: amyloid nucleation score

| Substance | Readout Number |
| --- | --- |
| ADFFESEQVHYKSELAKNHG | 0.049 |
| ERMGDSQGPKAGLWSFKYP | -0.226 |
| LGIVSCTSQNPNGVDTSIFG | 0.117 |
| GRSFYNCPPLRIHCLCIMEV | 0.557 |
| RFYTYQNDVAGSDDKFSMLC | -0.232 |
| FRNCVF | -0.141 |
| YVQFCGQHARR | -0.516 |
| QDYGDDLRSGFRGYLSSPQG | 0.264 |
| KNFDHVKDHIVFQVL | -1.27 |
| GGLCTLVVAVGDSWIDRR | -0.34 |
| MLRFRCVRQP | 0.102 |
| PGSIYMSPGCGYIQAVRDHI | -0.205 |
| FFNRTKTHEVDADGALSTL | 0.508 |
| DSMSRREQG | -0.437 |
| HYSTEEGRVCGSVKQQKAWL | -0.296 |
| WAVGVRSQLWVARQAKVMGG | 0.741 |
| DIYRRSVGGRWLRLFSRRVV | 0.209 |

---

assay: amyloid nucleation score (Sup35N fusion, yeast selection) (log enrichment); library NNK1; higher = more nucleation; inactive = no reads after selection
amyloid nucleation score values for the sequences below.

| Sequence Chain | amyloid nucleation score |
| --- | --- |
| FTFKWMGSPWLWR | 0.485 |
| LRWFPEAFNGAERESLASNL | -0.102 |
| AFLKLSTRWWKPVIFYKCDL | -0.932 |
| SKSYLVFDNISRRH | -1.11 |
| VYYYVNTVCWSARFHVGSGR | -0.561 |
| VINCNWKFSFFFALVNEGGV | 6.55 |
| NVNHSPSGMARRGSHRYKNS | -0.218 |
| RKSVKRVAKGGNS | 3.82 |
| AYCGSWLQYL | -0.231 |
| SSLKDSNLWSEIGTLWLTVM | -0.091 |
| GILFVFFQYF | 1.95 |
| SCRTLANITLCPRSIQF | 0.055 |
| YMVFVVVSI | 0.946 |
| FIWIGRKRRGGICCDEWKYG | 0.196 |
| SWSRRDVYKEGLDGGMGEGA | -1.07 |
| SEWGSQSSGAGSFTMV | -1.35 |
| LRYASEGSKFFVWNLTYLNR | -0.147 |
| KNDNAYCGWSWLLLTDSVHF | -0.836 |
| RIFNKDSLGI | -0.554 |
| SALYNAGCKLCLFTS | 0.004 |
| LVCSGKWFVKSARLQ | 0.962 |
| NCRGKREMGRKSSRSLVHGW | -0.039 |
| LDCAKTVVTGVVLGRQLCQN | 0.662 |
| GVDGYDLRGLSWEVAKEFKS | 0.73 |
| ATLHGFLLKICLADVLAYLV | 0.476 |
| TVGSIQKAEYWIHGYMATVN | 0.169 |
| LWGDYPFRDVPRTMVDQRRN | 0.079 |
| KLLPYMYCHYN | 1.27 |
| VGFYWNGWTTKGCWDNSWVL | 0.382 |
| KCWLHCWWTVNKTLRYAVRS | -0.531 |
| MMLLYCRLIWSPISDRICQF | -0.498 |
| CCGVDAFSSRESR | 1.55 |
| CCRSRLLIITRTVSTAGDSR | -0.54 |
| LCMKFSAVFWELKRV | 0.498 |
| CGKPPFGNYWGTWCKIVVTL | 0.746 |
| LLSFAITCDSPVSRSVLFIR | -0.53 |

Origin of the recorded values: the supplement of paper PMC12042874
